- target_system: TEAD1 TAZ (amino acids 13-57) (Homo sapiens, UniProt P28347)
- Sequence (P28347 167-426 limits assumed): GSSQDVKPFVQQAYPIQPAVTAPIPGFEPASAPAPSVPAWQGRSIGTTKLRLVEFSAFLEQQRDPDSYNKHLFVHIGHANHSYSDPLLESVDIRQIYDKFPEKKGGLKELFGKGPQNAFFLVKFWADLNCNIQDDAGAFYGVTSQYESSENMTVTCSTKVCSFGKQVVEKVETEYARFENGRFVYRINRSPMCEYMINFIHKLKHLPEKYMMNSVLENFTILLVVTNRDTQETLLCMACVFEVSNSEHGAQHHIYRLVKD
- assay_details: TEAD1-TAZ HTRF (TR-FRET) protein-protein interaction assay
- Type: binding
- protocol_conditions: TEAD1, TAZ peptide, HTRF
Could you mark each record label 1 if its TEAD1 TAZ HTRF combined: Max % Inhibition falls strictly under 60%, and label 0 if it equals or exceeds it?

[[record]]
compound = "O=C(c1c(C2CNCCO2)nn2c(=O)cc(-c3ccc(C4CCCCC4)cc3)[nH]c12)N1CC(CF)C1 (single isomer, unassigned) [Enantiomer A, Example 63]"
target_system = "TEAD1 TAZ (amino acids 13-57) (Homo sapiens, UniProt P28347)"
answer_label = "label 1"

[[record]]
compound = "CN(C)C(=O)c1nn2c(=O)cc(-c3cc(F)c(C4CCCCC4)c(F)c3)[nH]c2c1C(=O)N1CC(CF)C1 [Compound 3]"
target_system = "TEAD1 TAZ (amino acids 13-57) (Homo sapiens, UniProt P28347)"
answer_label = "label 1"

[[record]]
compound = "Cc1nccnc1-c1nn2c(=O)cc(-c3ccc(OC(c4ccccc4)C(F)(F)F)cc3)[nH]c2c1C(=O)N1C[C@H](CF)[C@@H]1C (single isomer, unassigned) [Final product obtained using Enantiomer A from Step 1, Example 56]"
target_system = "TEAD1 TAZ (amino acids 13-57) (Homo sapiens, UniProt P28347)"
answer_label = "label 0"

[[record]]
compound = "CC(CO)c1nn2c(=O)cc(-c3ccc(C4CCCCC4)cc3)[nH]c2c1C(=O)N1CC[C@@H](C#N)C1 (single isomer, unassigned) [Final product obtained using Enantiomer A from Step 4, Example 54]"
target_system = "TEAD1 TAZ (amino acids 13-57) (Homo sapiens, UniProt P28347)"
answer_label = "label 1"

[[record]]
compound = "Cc1nccnc1-c1nn2c(=O)cc(-c3ccc(C4CCCCC4)c(F)c3)[nH]c2c1C(=O)N1CC(CF)C1 [Compound 21]"
target_system = "TEAD1 TAZ (amino acids 13-57) (Homo sapiens, UniProt P28347)"
answer_label = "label 0"

[[record]]
compound = "CCCCCCC/C=C/c1cc(=O)n2nc(-c3nccnc3C)c(C(=O)N3C[C@H](CF)[C@@H]3C)c2[nH]1 [Compound 70]"
target_system = "TEAD1 TAZ (amino acids 13-57) (Homo sapiens, UniProt P28347)"
answer_label = "label 1"

